- test target: anti-CD28 Fab
- Sequence (VH, as listed by the source, chain 1 of 2): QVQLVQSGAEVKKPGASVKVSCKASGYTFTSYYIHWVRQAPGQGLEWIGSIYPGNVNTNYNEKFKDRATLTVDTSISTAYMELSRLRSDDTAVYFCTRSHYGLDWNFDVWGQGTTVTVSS
- Sequence (VL, as listed by the source, chain 2 of 2): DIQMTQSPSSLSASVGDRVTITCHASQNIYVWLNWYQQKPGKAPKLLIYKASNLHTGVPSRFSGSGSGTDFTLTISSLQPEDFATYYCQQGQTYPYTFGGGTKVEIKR
- method: competition ELISA, peptide titrated 0-100 uM against 1 nM anti-CD28 Fab, plate-bound CD28 as competitor
Items are presented alongside their recorded pIC50.
Reminder that pIC50 is minus the log10 of a molar concentration.

Exam item: Read off the recorded pIC50 for TCSAGAHYPWPICL [Peptide-150]
Marked response: 5.32

Exam item: Read off the recorded pIC50 for TCSAGAAYSWPACF [Peptide-146]
Marked response: 4.79

Exam item: Read off the recorded pIC50 for TCSAGATYEWPRCL [Peptide-149]
Marked response: 5.58

Exam item: Read off the recorded pIC50 for TCAAGAAWGWPLCF [Peptide-143]
Marked response: 5.59

Exam item: Read off the recorded pIC50 for SCSAGAAYYWPWCL [Peptide-151]
Marked response: 4.09

Exam item: Read off the recorded pIC50 for TCSAGATWPWPICL [Peptide-137]
Marked response: 6.05

Exam item: Read off the recorded pIC50 for LCAAGATYPWPLCL [Peptide-144]
Marked response: 5.52

Exam item: Read off the recorded pIC50 for TCAAGATYLWPTCL [Peptide-153]
Marked response: 5.07
